# Test system: Phospholipidosis
# experiment-summary: Literature-mined public compounds from Lowe et al phospholipidosis modelling dataset
measurement-name: Phospholipidosis

[
  {
    "molecule": "CN(C)CCCN1c2ccccc2Sc2ccccc21",
    "Phospholipidosis": "Positive"
  },
  {
    "molecule": "CN[C@@H]1[C@@H](O)[C@@H](O[C@@H]2[C@@H](O)[C@H](O[C@H]3O[C@H](C(C)N)CC[C@H]3N)[C@@H](N)C[C@H]2N)OC[C@]1(C)O (stereo not given in full)",
    "Phospholipidosis": "Positive"
  },
  {
    "molecule": "CCN(CC)CC(=O)Nc1c(C)cccc1C",
    "Phospholipidosis": "Positive"
  },
  {
    "molecule": "CC1(C)C(=O)NC(=O)N1CC(N)COc1ccc(-c2ccc(OC(F)(F)F)cc2)cc1 (stereo not given)",
    "Phospholipidosis": "Positive"
  },
  {
    "molecule": "Cn1nnc2c(C(N)=O)ncn2c1=O [TEMOZOLOMIDE]",
    "Phospholipidosis": "Negative"
  }
]

[in] Report Phospholipidosis for CC(=O)Oc1ccccc1C(=O)O please.
[out] Negative

[in] Try the molecule CCN(CC)CCCC(C)Nc1ccnc2cc(Cl)ccc12 (stereo not given)
[out] Positive

----------
# Test system: Phospholipidosis
# experiment-summary: Literature-mined public compounds from Lowe et al phospholipidosis modelling dataset
measurement-name: Phospholipidosis

Guide cases for Phospholipidosis, answers given:
[
  {
    "compound": "CCN1CC(CCN2CCOCC2)C(c2ccccc2)(c2ccccc2)C1=O (configuration not stated) [DOXAPRAM]",
    "Phospholipidosis": "Negative"
  },
  {
    "compound": "CCOC(=O)C1N=C(c2ccccc2F)c2cc(Cl)ccc2NC1=O (configuration not stated) [ETHYL LOFLAZEPATE]",
    "Phospholipidosis": "Positive"
  },
  {
    "compound": "CCOC(=O)NC(C)(C)Cc1ccc(Cl)cc1 [CLOFOREX]",
    "Phospholipidosis": "Negative"
  },
  {
    "compound": "CC[C@]1(O)C[C@@H]2CN(CCc3c([nH]c4ccccc34)[C@@](C(=O)OC)(c3cc4c(cc3OC)N(C)[C@H]3[C@@](O)(C(=O)OC)[C@H](OC(C)=O)[C@]5(CC)C=CCN6CC[C@]43[C@@H]65)C2)C1 [VINBLASTINE]",
    "Phospholipidosis": "Negative"
  },
  {
    "compound": "CN(C)[C@@H]1C(O)=C(C(=O)NCN2CCCC2)C(=O)[C@@]2(O)C(O)=C3C(=O)c4c(O)cccc4[C@@](C)(O)[C@H]3C[C@@H]12 [ROLITETRACYCLINE]",
    "Phospholipidosis": "Negative"
  },
  {
    "compound": "C[C@H]1COc2c(N3CCN(C)CC3)c(F)cc3c(=O)c(C(=O)O)cn1c23.C[C@H]1COc2c(N3CCN(C)CC3)c(F)cc3c(=O)c(C(=O)O)cn1c23.O [LEVOFLOXACIN]",
    "Phospholipidosis": "Negative"
  }
]

[in] What value of measured Phospholipidosis is listed for CC(O)(CS(=O)(=O)c1ccc(F)cc1)C(=O)Nc1ccc(C#N)c(C(F)(F)F)c1 (configuration not stated) [BICALUTAMIDE] ?
[out] Negative

[in] Try this compound too: CCN(CC)C(=O)[C@@H]1C=C2c3cccc4[nH]cc(c34)C[C@H]2N(C)C1 [LYSERGIDE]
[out] Positive

[in] Continue with CC(=O)N1CCN(c2ccc(OCC3COC(Cn4ccnc4)(c4ccc(Cl)cc4Cl)O3)cc2)CC1 (configuration not stated) [KETOCONAZOLE]
[out] Positive

[in] Then CN(C)CCCN1c2ccccc2CCc2ccccc21 [IMIPRAMINE] ?
[out] Positive

[in] Follow-up item: C=C[C@H]1C[N@@]2CC[C@H]1C[C@@H]2[C@@H](O)c1ccnc2ccc(OC)cc12 [QUINIDINE]
[out] Positive
